# Tested on: DETROIT562 cells
# assayProcedure: Cell viability (CellTiterGlo) in DETROIT562 cells
# Assay type: cell-based
# measurementSetup: Homo sapiens, Detroit 562, read-out: Compound 1 CTGlo GMean IC50 (95% CI); DETROIT562 (H1047R), 72 hours
valueType: IC50

[[record]]
compound = "Cc1c([C@@H](NC(=O)Nc2cnc(N)nc2)C(F)(F)F)oc2c(F)cc(F)cc12 (single isomer, unassigned)"
valuetype = "IC50"
observedresult = "246 nM"


---

# Test system: HCC1954 cells
# assayProcedure: Cell viability (CellTiterGlo) in HCC1954 cells
# Format: cell-based
# measurementSetup: Homo sapiens, read-out: Compound 1 CTGlo GMean IC50 (95% CI); HCC1954 (H1047R), 72 hours
# Experimental: Cell viability was measured using CellTiterGlo (Promega #G9243). Indicated cell lines were seeded according to Supplementary Table S3 in 50 μL of media in 384 well plates, with 72 hours of treatment at 37° C. with 5% CO2.
pIC50: −log10 of the molar value.
valueType: pIC50

[[record]]
compound = "Cc1c([C@@H](NC(=O)Nc2cnc(N)nc2)C(F)(F)F)oc2c(F)cc(F)cc12 (single isomer, unassigned)"
targetentity = "HCC1954 cells"
observedresult = 6.34


Where do the numbers come from? From patent US20260174770A1.
